# Test system: primary human hepatic stellate cells (donor 1)
# Assay summary: COL1A1 mRNA fold change vs DMSO (normalised to PSMB2); higher = more COL1A1 expression, active = hit call of the paper
# Experimental parameters: 48 h
// one of 1 (yes) = active, 0 (no) = inactive, no free text

Use the examples below as a reference point.
{"Compound": "CC(/C=C/C(=O)NO)=C\\[C@@H](C)C(=O)c1ccc(N(C)C)cc1 [Trichostatin A] (3.33333 µM)", "Test system": "primary human hepatic stellate cells (donor 1)", "Category label": "1 (yes)"}
{"Compound": "CN1CCN(C2=Cc3ccccc3Oc3ccc(Cl)cc32)CC1 (33.3333 µM)", "Test system": "primary human hepatic stellate cells (donor 1)", "Category label": "1 (yes)"}
{"Compound": "Cc1cccc(Nc2nc(-c3ccncc3)cs2)c1 (11.1 µM)", "Test system": "primary human hepatic stellate cells (donor 1)", "Category label": "0 (no)"}

Challenge: Each compound tested received a call. Report the one for NC(N)=NC(=O)c1nc(Cl)c(N2CCCCCC2)nc1N [5-(N,N-hexamethylene)amiloride] (33.3333 µM) .
Response given: 1 (yes)

###

Examples of molecules with documented ACTA2 mRNA fold change follow.
# System: primary human hepatic stellate cells (donor 1)
# Assay summary: ACTA2 mRNA fold change vs DMSO (normalised to PSMB2); higher = more ACTA2 expression
# Experimental parameters: 48 h
Note: the reply should be a number with no unit written.

Challenge: Endpoint output: ACTA2 mRNA fold change of CC[C@@H]1C(=O)N(C)c2cnc(Nc3ccc(C(=O)NC4CCN(C)CC4)cc3OC)nc2N1C1CCCC1 (33.3333 µM) . Value?
Response given: 0.158

###

Measured ACTA2 mRNA fold change of individual entries
# Test system: primary human hepatic stellate cells (donor 1)
# Assay summary: ACTA2 mRNA fold change vs DMSO (normalised to PSMB2); higher = more ACTA2 expression
# Experimental parameters: 48 h
Counter-ions that a name gives are not always drawn.
Output spec: single numeric token, no unit.

{"Compound": "CNCCCC12CCC(c3ccccc31)c1ccccc12 [Maprotiline hydrochloride] (33.3333 µM)", "Measured parameter": "ACTA2 mRNA fold change", "Test value": 0.0243}
{"Compound": "Cc1ccc2c(c1)c1c3n2CCNC3CCC1 (stereo unspecified) [Pirlindole mesylate] (20.6667 µM)", "Measured parameter": "ACTA2 mRNA fold change", "Test value": 0.712}
{"Compound": "CC(C)(C)c1cc(NC(=O)Nc2ccc(-c3cn4c(n3)sc3cc(OCCN5CCOCC5)ccc34)cc2)no1 [Quizartinib (AC220)] (11.1 µM)", "Measured parameter": "ACTA2 mRNA fold change", "Test value": 0.258}

Challenge: Using the record for O=C(Nc1cc(C(F)(F)F)cc(C(F)(F)F)c1)c1cc(Cl)ccc1O (33.3333 µM) , report its ACTA2 mRNA fold change.
Response given: 0.0138

Challenge: May I ask what ACTA2 mRNA fold change has been recorded for O=C(Nc1ncc(SCCN2CCCC2)s1)[C@]1(c2ccc(S(=O)(=O)C3CC3)cc2)C[C@H]1C1CCCCC1 (11.1 µM) ?
Response given: 0.00928

Challenge: Return reported ACTA2 mRNA fold change; argument: C#CC1(O)CC[C@H]2[C@@H]3CCC4=CC(=O)CC[C@@H]4[C@H]3CC[C@@]21CC (stereo partly specified) [Norgestrel] (21.3333 µM)
Response given: 0.714

###

Each item that follows carries a reported ACTA2 mRNA fold change.
# System: primary human hepatic stellate cells (donor 1)
# Assay summary: ACTA2 mRNA fold change vs DMSO (normalised to PSMB2); higher = more ACTA2 expression
# Experimental parameters: 48 h

Some solved entries appear below for comparison.
{"Compound": "C[C@]12CC[C@H](O)CC1=CC[C@@H]1[C@@H]2CC[C@]2(C)C(n3cnc4ccccc43)=CC[C@@H]12 [Galeterone] (33.3333 µM)", "ACTA2 mRNA fold change": 0.0205}
{"Compound": "Cc1cccc(Nc2nc(-c3ccncc3)cs2)c1 (11.1 µM)", "ACTA2 mRNA fold change": 1.07}
{"Compound": "O=C1NCN(c2ccccc2)C12CCN(CCCC(c1ccc(F)cc1)c1ccc(F)cc1)CC2 [Fluspirilene] (14.0333 µM)", "ACTA2 mRNA fold change": 1.03}

Next, consider the following compound.
Challenge: Reported ACTA2 mRNA fold change, compound CCCCCCCCCCCCC/C=C/[C@@H](O)[C@H](CO)N(C)C [N,N-Dimethylsphingosine] (3.33333 µM) : ____
Response given: 0.651

###

# System: primary human hepatic stellate cells (donor 1)
# Assay summary: COL1A1 mRNA fold change vs DMSO (normalised to PSMB2); higher = more COL1A1 expression, active = hit call of the paper
# Experimental parameters: 48 h
Counter-ions that a name gives are not always drawn.
Measured parameter: COL1A1 mRNA fold change
Form rule: numeric answer, no unit written next to it.

These recorded examples may help you get a feel for the data.
{"Compound": "O=C1NC(=O)/C(=C/c2ccc(-c3ccc(F)cc3O)o2)S1 (33.3333 µM)", "COL1A1 mRNA fold change": 0.115}
{"Compound": "Clc1ccccc1CNCC1CCC(CNCc2ccccc2Cl)CC1 (stereo not given) (33.3333 µM)", "COL1A1 mRNA fold change": 0.055}
{"Compound": "CCN(CC)CCOc1ccc(Cc2ccccc2)cc1 [DPPE fumarate] (33.3333 µM)", "COL1A1 mRNA fold change": 0.51}

Attention now shifts to the item below.
Challenge: Return reported COL1A1 mRNA fold change; argument: COC(=O)N[C@H](C(=O)N1CCC[C@H]1c1ncc(-c2ccc(-c3ccc(-c4cnc([C@@H]5CCCN5C(=O)[C@@H](NC(=O)OC)C(C)C)[nH]4)cc3)cc2)[nH]1)C(C)C (33.3333 µM)
Response given: 0.0176

###

# Tested on: primary human hepatic stellate cells (donor 1)
# Assay summary: COL1A1 mRNA fold change vs DMSO (normalised to PSMB2); higher = more COL1A1 expression, active = hit call of the paper
# Experimental parameters: 48 h
Valid outcomes are listed here; reply with one: true (active), false (inactive)

// known answers, use as guide
{"Compound": "CNC(=O)[C@@H](Cc1ccccc1)N(C)C(=O)[C@@H](Cc1ccc2ccccc2c1)N(C)C(=O)/C=C/CC(C)(C)N [Tabimorelin] (33.3333 µM)", "Test system": "primary human hepatic stellate cells (donor 1)", "Category label": "false"}
{"Compound": "Cc1nc2ccc(-n3ncc(C(=O)c4cc5ccccc5[nH]4)c3N)cc2[nH]1 (33.3333 µM)", "Test system": "primary human hepatic stellate cells (donor 1)", "Category label": "false"}
{"Compound": "NC[C@@H]1O[C@H](C23CC4CC(CC(C4)C2)C3)Cc2c1ccc(O)c2O (33.3333 µM)", "Test system": "primary human hepatic stellate cells (donor 1)", "Category label": "false"}
{"Compound": "C[C@]12CC[C@H](O)CC1=CC[C@@H]1[C@@H]2CC[C@]2(C)C(n3cnc4ccccc43)=CC[C@@H]12 [Galeterone] (33.3333 µM)", "Test system": "primary human hepatic stellate cells (donor 1)", "Category label": "false"}
{"Compound": "COC(=O)C[C@](O)(CCCC(C)(C)O)C(=O)O[C@@H]1C(OC)=C[C@]23CCCN2CCc2cc4c(cc2[C@H]13)OCO4 [Homoharringtonine] (33.3333 µM)", "Test system": "primary human hepatic stellate cells (donor 1)", "Category label": "true"}
{"Compound": "CNCc1ccc(-c2cc(-c3nc(-c4ccc(S(=O)(=O)C(C)C)cc4)cnc3N)on2)cc1 (11.1 µM)", "Test system": "primary human hepatic stellate cells (donor 1)", "Category label": "false"}

Challenge: # outcome recorded in this test, key = CC(C)c1cc(-c2n[nH]c(=O)n2-c2ccc3c(ccn3C)c2)c(O)cc1O [Ganetespib (STA-9090)] (33.3333 µM)
Response given: false

Challenge: Which outcome was assigned to O=C(Nc1cc(C(F)(F)F)cc(C(F)(F)F)c1)c1cc(Cl)ccc1O (33.3333 µM) in this test?
Response given: true

###

# System: primary human hepatic stellate cells (donor 1)
# Assay summary: ACTA2 mRNA fold change vs DMSO (normalised to PSMB2); higher = more ACTA2 expression
# Experimental parameters: 48 h
Structures can show the parent of a compound that is named as a salt.
Measured parameter: ACTA2 mRNA fold change
# respond with the number and nothing more

Use these answered entries as a reference point.
{"Compound": "Cc1ccc(S(=O)(=O)/C=C/C#N)cc1 (33.3333 µM)", "Measured parameter": "ACTA2 mRNA fold change", "Test value": 0.24}
{"Compound": "CN1CCC(=C2c3ccccc3C=Cc3ccccc32)CC1 [Cyproheptadine] (33.3333 µM)", "Measured parameter": "ACTA2 mRNA fold change", "Test value": 0.172}
{"Compound": "CCC/C=C\\C=C/C(=O)N[C@@H](CC(N)=O)C(=O)NC(CC(N)=O)C(=O)N[C@@H](C(=O)N[C@H](CCCN)C(=O)N[C@@H](C(=O)N[C@@H](C(=O)N[C@@H](C(=O)N[C@H](C(=O)N[C@@H](Cc1ccccc1)C(=O)N[C@H](CCCN)C(=O)NC(C(=O)N[C@H](C(=O)NC(C(=O)NCC(=O)N[C@@H](CC(C)C)C(=O)N[C@H](C)C(=O)NC(C(=O)O)C1CCC(O)C(Cl)C1)C1CCC(O)CC1)[C@H](C)O)C1CCC(O)CC1)[C@H](C)O)C1CCC(O)CC1)C1CCC(O)CC1)[C@H](C)O)C1CCC(O)CC1 (stereo not given in full) (33.3333 µM)", "Measured parameter": "ACTA2 mRNA fold change", "Test value": 0.502}
{"Compound": "CCNC(=O)c1noc(-c2cc(C(C)C)c(O)cc2O)c1-c1ccc(CN2CCOCC2)cc1 (11.1 µM)", "Measured parameter": "ACTA2 mRNA fold change", "Test value": 1.19}
{"Compound": "CNCCCC1c2ccccc2C=Cc2ccccc21 [Protryptyline hydrochloride] (22.2333 µM)", "Measured parameter": "ACTA2 mRNA fold change", "Test value": 0.577}
{"Compound": "CN1CCC(CNc2ccc3ncc(-c4cccc(OC(F)(F)F)c4)n3n2)CC1 (6.66667 µM)", "Measured parameter": "ACTA2 mRNA fold change", "Test value": 1.23}

Challenge: Query: ACTA2 mRNA fold change; subject: CCCCCCCCc1ccc(CCC(N)(CO)CO)cc1 [Fingolimod (FTY720) HCl] (11.1 µM)
Response given: 0.301

Challenge: Name the reported ACTA2 mRNA fold change value associated with the compound Cc1nc(Nc2ncc(C(=O)Nc3c(C)cccc3Cl)s2)cc(N2CCN(CCO)CC2)n1 (33.3333 µM)
Response given: 0.192

Challenge: Sample COc1cc2nc(N3CCCN(C)CC3)nc(NC3CCN(Cc4ccccc4)CC3)c2cc1OC (3.33333 µM) — what was its ACTA2 mRNA fold change?
Response given: 0.0176

Challenge: Please report the recorded ACTA2 mRNA fold change for CNCCC(Oc1ccc(C(F)(F)F)cc1)c1ccccc1 (stereo not given) [Fluoxetine hydrochloride] (33.3333 µM) .
Response given: 0.0314
